B1: library; numbered along this chain (parent)
chain: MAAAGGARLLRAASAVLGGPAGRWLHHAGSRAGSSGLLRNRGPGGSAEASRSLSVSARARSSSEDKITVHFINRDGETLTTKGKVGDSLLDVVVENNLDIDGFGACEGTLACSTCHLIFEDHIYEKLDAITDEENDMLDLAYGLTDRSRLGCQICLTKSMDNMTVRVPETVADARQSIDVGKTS

# Variants of: B1
# measurementDescription: scaled log2 fold change in cell abundance, elesclomol vs control (0 = silent mean, 1 = nonsense mean) (scaled log2 ratio); higher = higher viability under elesclomol (loss of FDX1 cuproptosis function);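 also: variant abundance is its share of total variant reads in each endpoint sample, from next-generation sequencing of the integrated ORF PCR-amplified out of genomic DNA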
# measurementSetup: with ABC1 FDX1 KO; elesclomol 5 nM; glucose 10 mM; 14 days
Decision: scaled log2 fold change >= 0.01 yields 1.0, all other cases yield 0.0.

Enquiry: Entry R41A : is its scaled log2 fold change no less than 0.01?
Return: 1.0
